Test System: PRMT5-MEP50 enzyme (Homo sapiens)
Construct: One virus expresses full length human PRMT5 with Flag-tag at N-terminus; Flag (N); purchased Charles River (Argenta); host or cells: insect cells (Sf9), baculovirus co-infection
Sequence (O14744 whole entry): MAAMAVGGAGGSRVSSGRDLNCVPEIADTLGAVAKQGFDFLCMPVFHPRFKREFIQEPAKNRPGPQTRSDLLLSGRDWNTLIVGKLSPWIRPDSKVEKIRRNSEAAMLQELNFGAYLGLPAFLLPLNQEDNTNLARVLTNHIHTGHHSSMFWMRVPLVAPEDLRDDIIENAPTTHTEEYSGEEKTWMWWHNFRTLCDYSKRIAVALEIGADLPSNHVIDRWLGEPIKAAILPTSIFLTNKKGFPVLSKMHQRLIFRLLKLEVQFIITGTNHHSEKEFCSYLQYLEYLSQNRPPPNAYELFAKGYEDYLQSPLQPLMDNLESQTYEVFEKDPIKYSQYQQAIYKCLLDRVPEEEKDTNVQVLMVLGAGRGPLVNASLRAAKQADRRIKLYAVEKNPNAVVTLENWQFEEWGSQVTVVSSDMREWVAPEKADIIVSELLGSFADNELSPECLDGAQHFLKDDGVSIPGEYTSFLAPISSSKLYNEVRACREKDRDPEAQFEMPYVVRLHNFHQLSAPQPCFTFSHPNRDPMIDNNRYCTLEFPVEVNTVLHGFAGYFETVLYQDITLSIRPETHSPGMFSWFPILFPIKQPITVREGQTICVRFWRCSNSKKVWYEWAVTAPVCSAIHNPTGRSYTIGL
Sequence (Q9BQA1 whole entry partner): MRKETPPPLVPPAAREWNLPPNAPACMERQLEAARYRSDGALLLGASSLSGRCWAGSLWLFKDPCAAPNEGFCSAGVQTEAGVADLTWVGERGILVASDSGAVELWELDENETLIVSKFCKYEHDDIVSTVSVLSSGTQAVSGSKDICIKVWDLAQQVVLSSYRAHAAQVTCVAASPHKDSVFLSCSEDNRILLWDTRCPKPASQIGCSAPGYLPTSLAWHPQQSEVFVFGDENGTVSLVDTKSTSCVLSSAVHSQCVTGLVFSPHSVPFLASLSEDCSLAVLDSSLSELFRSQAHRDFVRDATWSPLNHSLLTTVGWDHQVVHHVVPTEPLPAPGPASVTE
Assay Notes: In vitro assay 1b: high throughput mass spectrometer assay of SAH formation, 1.25 nM enzyme, 120 min
Assay type: biochemical
Settings: averaged values; PRMT5-MEP50, 1.25 nM enzyme, 120 min; read-out: pIC50 Assay 1b (converted)
The following compounds are shown together with reported IC50 values.

{"Cpd Smiles": "Nc1ncnc2c1ncn2[C@@H]1O[C@H](COc2cc3ncc(Br)cc3cc2Cl)[C@@H](O)[C@H]1O", "IC50": "> 100 µM"}
{"Cpd Smiles": "COc1ncnc2c1ccn2[C@@H]1C[C@H](CCc2ccc3cc(F)c(N)nc3c2)[C@@H](O)[C@H]1O", "IC50": "0.00398 µM"}
{"Cpd Smiles": "COc1ncnc2c1ccn2[C@@H]1O[C@H](COc2ccc3ccc(N)nc3c2)[C@@H](O)[C@H]1O", "IC50": "0.0794 µM"}
{"Cpd Smiles": "COCc1cnc2cc(OC[C@H]3O[C@@H](n4ccc5c(N)ncnc54)[C@H](O)[C@@H]3O)ccc2c1", "IC50": "0.316 µM"}
{"Cpd Smiles": "Nc1ncnc2c1ccn2[C@@H]1O[C@H](COc2cc3ncc(Br)cc3cc2C(F)(F)F)[C@@H](O)[C@H]1O", "IC50": "0.501 µM"}
{"Cpd Smiles": "Nc1ncnc2c1ccn2[C@@H]1O[C@H](CCc2ccc3ccc(NCC4CC4)nc3c2)[C@@H](O)[C@H]1O", "IC50": "0.01 µM"}

Continue with the next compound.
Specify reported IC50 for the compound shown: Nc1ncnc2c1ccn2[C@@H]1O[C@H](COc2ccc3c(C(F)(F)F)ccnc3c2)[C@@H](O)[C@H]1O
> 100 µM
